B1: tRNA (parent)
chain: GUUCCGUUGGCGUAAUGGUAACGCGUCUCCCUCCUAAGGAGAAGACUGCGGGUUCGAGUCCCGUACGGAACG

Variants of: B1
Test: yeast fitness relative to wild type (ratio to wild type); higher = fitter; tRNA-Arg(CCU), competitive growth, 37 C, YPD
Fewer inactive variants are shown than the library holds.
quantity measured: yeast fitness
# answer = number (no unit)

Report yeast fitness for C5U C11A C24G C27G A36U G38C C60G C66A please.
0.522

Report yeast fitness for G58C C61U please.
0.887

Report yeast fitness for G25A C34U A65U please.
0.671

Report yeast fitness for U13C A14U C31G G50A A65C please.
0.531

Report yeast fitness for C4A A15G please.
0.844

Report yeast fitness for G9C G50C please.
0.514

Report yeast fitness for C4U U7A U13A U32C G44C please.
0.718

Report yeast fitness for G6A G9A please.
0.969

Report yeast fitness for A42U A65G C66G G68A please.
0.551

Report yeast fitness for U7A G18A please.
0.689

Report yeast fitness for U2A G56A please.
0.898

Report yeast fitness for G9A G68A A69C please.
0.802

Report yeast fitness for G38C G68A please.
0.62

Report yeast fitness for C22G C33U please.
0.713

Report yeast fitness for C4A C24U A65C please.
0.65

Report yeast fitness for U3G A45G A57G please.
0.717

Report yeast fitness for G9C C46A please.
0.893

Report yeast fitness for G9C G38A A65G please.
0.519

Report yeast fitness for G17A C60G please.
0.586

Report yeast fitness for C22G A42C A70U please.
0.671

Report yeast fitness for G17C A36G C49U C66U A69C please.
0.598

Report yeast fitness for C11U C49U A65G please.
0.76

Report yeast fitness for C55U C66U please.
0.667

Report yeast fitness for G44C G50C A70C please.
0.573

Report yeast fitness for A45C G48C A69U please.
0.675
